system: AGS cells; experiment: Cell viability in AGS cells (CellTiter Glo2, 8-point dose response, 4 days); assay type: cell-based, human; conditions: Homo sapiens, AGS, 96 h
pIC50: −log10 of the molar value.
PARAMETER: pIC50

IN: What pIC50 value was documented for this molecule, CCC(=O)N1CCc2cc(-c3ccc(C(=O)NCc4cncnc4)cc3)ccc21 [Compound I-51] ?
OUT: < 4.52

IN: What pIC50 value was documented for this molecule, CCC(=O)N1CCc2cc(-c3ccc(C(=O)NCc4cccc(OC)c4)cc3)ccc21 [Compound I-171] ?
OUT: < 4.52

IN: What pIC50 value was documented for this molecule, CCC(=O)N1CCc2cc(-c3ccc(C(=O)NCc4cccnc4C)cc3)ccc21 [Compound I-61] ?
OUT: < 4.52

IN: What pIC50 value was documented for this molecule, CCC(=O)N(C)c1ccc(-c2ccc(C(=O)NCc3cccnc3)cc2)cc1 [Compound I-45] ?
OUT: 5.35

IN: What pIC50 value was documented for this molecule, CCC(=O)N1CCc2cc(-c3ccc(C(=O)NCc4ccc(C)cc4)cc3)ccc21 [Compound I-157] ?
OUT: < 4.52

IN: What pIC50 value was documented for this molecule, CCC(=O)N1CCc2cc(-c3ccc(C(=O)NCc4ccnnc4)cc3)ccc21 [Compound I-52] ?
OUT: < 5.00

IN: What pIC50 value was documented for this molecule, O=C(NCc1cccnc1)c1ccc(-c2ccc3c(c2)CCN3C(=O)CO)cc1 [Compound I-47] ?
OUT: 5.49

IN: What pIC50 value was documented for this molecule, CCC(=O)N1CCc2cc(-c3ccc(C(=O)NCC4CCCO4)cc3)ccc21 (centres unmarked) [Compound I-178] ?
OUT: < 4.52
